Assayed target: HDAC1 (Homo sapiens, UniProt Q13547)
Construct: purchased Enzolifesciences BML-AK511
Sequence (Q13547 whole entry): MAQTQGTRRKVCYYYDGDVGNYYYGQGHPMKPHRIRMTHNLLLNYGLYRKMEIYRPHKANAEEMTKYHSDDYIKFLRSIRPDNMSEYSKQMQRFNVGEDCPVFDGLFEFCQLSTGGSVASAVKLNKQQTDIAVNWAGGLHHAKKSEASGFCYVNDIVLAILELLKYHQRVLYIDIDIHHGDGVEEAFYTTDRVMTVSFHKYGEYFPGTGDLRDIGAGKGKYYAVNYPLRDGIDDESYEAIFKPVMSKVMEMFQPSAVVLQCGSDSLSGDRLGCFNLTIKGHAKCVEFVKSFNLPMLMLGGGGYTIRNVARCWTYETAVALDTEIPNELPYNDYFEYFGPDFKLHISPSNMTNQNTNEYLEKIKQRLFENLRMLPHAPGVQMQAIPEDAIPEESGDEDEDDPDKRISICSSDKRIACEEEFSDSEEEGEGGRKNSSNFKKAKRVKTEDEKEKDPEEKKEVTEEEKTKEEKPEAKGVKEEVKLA
Procedure details: HDAC enzyme activity inhibition (in vitro), HDAC1 Fluorimetric Drug Discovery Assay Kit
Assay type: biochemical
Test context: samples at 100, 1000 and 10000 nM; 37° C. 60 minutes; fluorescence Ex 390, Em 460; read-out: HDAC1 IC50
pIC50: −log10 of the molar value.
Observation type: pIC50

# count of solved cases: 4
Compound: Cn1c(=O)n(Cc2ccc(-c3nnc(C(F)F)o3)cn2)c2ccc(-c3cn[nH]c3)cc21
Assayed target: HDAC1 (Homo sapiens, UniProt Q13547)
pIC50: < 5.00
--
Compound: O=c1oc2cc(-c3cncc(N4CCOCC4)c3)c(F)cc2n1Cc1ccc(-c2nnc(C(F)F)o2)cn1
Assayed target: HDAC1 (Homo sapiens, UniProt Q13547)
pIC50: < 5.00
--
Compound: CS(=O)(=O)N1CCC(n2c(=O)n(Cc3ccc(-c4nnc(C(F)F)o4)cc3F)c3cc(C(F)(F)F)ccc32)CC1
Assayed target: HDAC1 (Homo sapiens, UniProt Q13547)
pIC50: < 5.00
--
Compound: CC(C)(C)OC(=O)N1CCN(c2cc3oc(=O)n(Cc4ccc(-c5nnc(C(F)F)o5)cn4)c3cc2F)CC1
Assayed target: HDAC1 (Homo sapiens, UniProt Q13547)
pIC50: < 5.00

Field pIC50 (entry CN(C)CCn1c(=O)n(Cc2ccc(-c3nnc(C(F)F)o3)cn2)c2cc(F)c(-c3ccncc3)cc21 ) reads < 5.00

Field pIC50 (entry CS(=O)(=O)N1CCC(n2c(=O)n(Cc3ccc(-c4nnc(C(F)F)o4)cc3)c3ncccc32)CC1 ) reads < 5.00

Field pIC50 (entry O=c1n(Cc2ccc(-c3nnc(C(F)F)o3)cc2F)c2ccccc2n1C1CCOCC1 ) reads < 5.00

Field pIC50 (entry O=c1n(Cc2ccc(-c3nnc(C(F)F)o3)cn2)c2cc(F)ccc2n1C1CCN(C2CCC2)CC1 ) reads < 5.00

Field pIC50 (entry O=c1n(Cc2ccc(-c3nnc(C(F)F)o3)cn2)c2cc(Cl)ccc2n1C1CCN(C2COC2)CC1 ) reads < 5.00

Field pIC50 (entry CN1CCC(c2cc3oc(=O)n(Cc4ccc(-c5nnc(C(F)F)o5)cn4)c3cc2F)CC1 ) reads < 5.00

Field pIC50 (entry O=c1n(Cc2ccc(-c3nnc(C(F)F)o3)cn2)c2ncccc2n1C1CCN(C2COC2)CC1 ) reads < 5.00

Field pIC50 (entry CN1CCC(n2c(=O)n(Cc3ccc(-c4nnc(C(F)F)o4)cn3)c3cc(F)c(Br)cc32)CC1 ) reads < 5.00

Field pIC50 (entry O=c1n(Cc2ccc(-c3nnc(C(F)F)o3)cn2)c2cc(F)c(N3CCN(C4COC4)CC3)cc2n1C1COC1 ) reads < 5.00

Field pIC50 (entry CN1CC(N2Cc3ccccc3N(Cc3ccc(-c4nnc(C(F)F)o4)cc3F)C2=O)C1 ) reads < 5.00

* * *

Assayed target: HDAC6 human recombinant (Homo sapiens)
Construct: purchased Calbiochem 382180
Sequence (Q9UBN7 whole entry): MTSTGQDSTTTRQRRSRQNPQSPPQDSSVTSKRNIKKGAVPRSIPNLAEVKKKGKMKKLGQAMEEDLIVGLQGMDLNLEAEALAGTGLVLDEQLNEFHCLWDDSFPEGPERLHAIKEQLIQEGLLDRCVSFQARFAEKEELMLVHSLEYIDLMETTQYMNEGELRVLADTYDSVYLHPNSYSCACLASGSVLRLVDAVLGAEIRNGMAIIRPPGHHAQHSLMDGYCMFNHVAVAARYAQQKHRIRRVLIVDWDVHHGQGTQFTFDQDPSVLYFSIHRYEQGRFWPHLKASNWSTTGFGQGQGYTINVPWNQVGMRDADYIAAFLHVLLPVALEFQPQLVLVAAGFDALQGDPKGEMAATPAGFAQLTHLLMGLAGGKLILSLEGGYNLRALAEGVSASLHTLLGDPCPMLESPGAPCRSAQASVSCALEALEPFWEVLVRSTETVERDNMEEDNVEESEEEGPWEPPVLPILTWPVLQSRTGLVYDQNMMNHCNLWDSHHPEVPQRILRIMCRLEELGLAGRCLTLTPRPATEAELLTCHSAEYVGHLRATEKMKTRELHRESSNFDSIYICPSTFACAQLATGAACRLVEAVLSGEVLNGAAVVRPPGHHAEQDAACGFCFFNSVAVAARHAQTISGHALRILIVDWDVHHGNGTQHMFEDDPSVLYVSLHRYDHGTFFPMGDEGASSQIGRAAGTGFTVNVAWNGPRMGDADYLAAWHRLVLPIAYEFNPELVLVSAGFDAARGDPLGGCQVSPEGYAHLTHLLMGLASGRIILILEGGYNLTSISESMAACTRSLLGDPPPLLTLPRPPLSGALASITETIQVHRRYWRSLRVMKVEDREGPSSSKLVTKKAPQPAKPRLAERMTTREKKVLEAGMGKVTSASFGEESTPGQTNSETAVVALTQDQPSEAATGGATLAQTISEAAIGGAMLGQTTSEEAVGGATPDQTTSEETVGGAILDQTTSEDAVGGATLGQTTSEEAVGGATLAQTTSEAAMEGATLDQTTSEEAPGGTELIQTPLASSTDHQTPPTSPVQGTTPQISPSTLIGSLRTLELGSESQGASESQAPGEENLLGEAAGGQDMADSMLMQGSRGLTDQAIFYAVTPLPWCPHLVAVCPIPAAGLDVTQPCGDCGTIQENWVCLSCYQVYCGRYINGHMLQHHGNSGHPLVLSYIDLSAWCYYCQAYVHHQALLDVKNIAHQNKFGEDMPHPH
Procedure details: HDAC enzyme activity inhibition (in vitro), HDAC6 assay
Assay type: biochemical
Test context: samples at 0.1, 1, 10, 100 and 1000 nM; 37° C. 60 minutes; fluorescence Ex 390, Em 460; read-out: HDAC6 IC50
Observation type: IC50
Please state the value followed by its unit.

# count of solved cases: 3
Compound: CN1CCN(c2cc3oc(=O)n(Cc4ccc(-c5nnc(C(F)F)o5)cn4)c3cc2F)CC1 [Compound 317]
Assayed target: HDAC6 human recombinant (Homo sapiens)
IC50: 15 nM
//
Compound: O=C(c1ccncc1)N1CCC(n2c(=O)n(Cc3ccc(-c4nnc(C(F)F)o4)cn3)c3cc(F)ccc32)CC1 [Compound 63]
Assayed target: HDAC6 human recombinant (Homo sapiens)
IC50: 57 nM
//
Compound: CCN1CCC(n2c(=O)n(Cc3ccc(-c4nnc(C(F)F)o4)cn3)c3ccc(F)cc32)CC1 [Compound 40]
Assayed target: HDAC6 human recombinant (Homo sapiens)
IC50: 155 nM

Field IC50 (entry CN1CCC(n2c(=O)n(Cc3ccc(-c4nnc(C(F)F)o4)cn3)c3cc(F)c(-c4ccco4)cc32)CC1 [Compound 151] ) reads 55 nM

Field IC50 (entry O=c1n(Cc2ccc(-c3nnc(C(F)F)o3)cc2F)c2cc(F)ccc2n1C1CCN(C2COC2)CC1 [Compound 71] ) reads 19 nM

Field IC50 (entry CN1CCC(n2c(=O)n(Cc3ccc(-c4nnc(C(F)F)o4)cn3)c3cc(-c4cccnc4)ccc32)CC1 [Compound 145] ) reads 315 nM

Field IC50 (entry O=c1n(Cc2ccc(-c3nnc(C(F)F)o3)cc2F)c2ccccc2n1C1CCS(=O)(=O)CC1 [Compound 35] ) reads 203 nM
